Tested on: KB (Oral squamous) tumor cells
Assay: MTT cytotoxicity assay, KB cells
Assay type: cell-based
Settings: 1 μM, 48 hours
* marks the point of attachment. Palmitoyl = CCCCCCCCCCCCCCCC(=O)*; Octanoyl = CCCCCCCC(=O)*; Butyryl = CCCC(=O)*
MEASUREMENT TYPE: Percentage cytotoxicity

n-Octanoyl-Leu-Met-Tyr-Pro-Thr-Tyr-Leu-Lys-OH (Octanoyl-LMYPTYLK-OH) [DT-O1] :: 23.9 ± 1.3%
n-Butanoyl-Leu-Met-Tyr-Pro-Thr-Tyr-Leu-Lys-OH (Butyryl-LMYPTYLK-OH) [DT-B1] :: 14.8 ± 2.3%
Ac-LMYPTYLK-OH [DT-A1] :: 21.0 ± 2.3%
Palmitoyl-Leu-Met-Tyr-Pro-Thr-Tyr-Leu-Lys-OH (Palmitoyl-LMYPTYLK-OH) [DT-P1] :: 18.0 ± 2.6%

---

Tested on: U87MG (Glioblastoma) tumor cells
Experiment: MTT cytotoxicity assay, U87MG cells
Type: cell-based
Conditions: 1 nM, 48 hours
* marks the point of attachment. Palmitoyl = CCCCCCCCCCCCCCCC(=O)*; Octanoyl = CCCCCCCC(=O)*; Butyryl = CCCC(=O)*
MEASUREMENT TYPE: Percentage cytotoxicity

n-Butanoyl-Leu-Met-Tyr-Pro-Thr-Tyr-Leu-Lys-OH (Butyryl-LMYPTYLK-OH) [DT-B1] :: 33.9 ± 0.6%
Palmitoyl-Leu-Met-Tyr-Pro-Thr-Tyr-Leu-Lys-OH (Palmitoyl-LMYPTYLK-OH) [DT-P1] :: 9.6 ± 1.8%
n-Octanoyl-Leu-Met-Tyr-Pro-Thr-Tyr-Leu-Lys-OH (Octanoyl-LMYPTYLK-OH) [DT-O1] :: 37.0 ± 1.6%
